Assay: NCI Yeast Anticancer Drug Screen. Data for the sgs1 mgt1 strain (AID 161);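 also: 0% = growth of cultures given vehicle only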
Conditions: S. cerevisiae sgs1 mgt1 strain, at 5.0 µM (retest, dose inferred, filed as 0.5), active compounds read high
About 79,000 compounds went through this panel and 15% of them were active in at least one assay; those are over-represented in the sample as a whole.
experimental endpoint: growth inhibition (%)
One number for each entry, in %.

// below: answered compounds
CCC(C)NCCNc1cc(OC)cc2cccnc12 (stereo not drawn) = 7
CC1=C(C(=O)Nc2cccc(Cl)c2)C(c2ccc([N+](=O)[O-])cc2)C(C(=O)Nc2cccc(Cl)c2)=C(C)N1 = 34

Quick batch: growth inhibition for everything below.
1. COc1ccc2c(Cc3ccc(Cl)cc3)cncc2c1O
2. O=C(n1c2ccccc2c2n[nH]c(=S)nc21)C(F)(F)F

### Response
1. 15
2. -3

Quick batch: growth inhibition for everything below.
1. C=C1CCC[C@@H]2[C@@](C)(CC3=CC(=O)C=CC3=O)C(C)CC[C@]12C (stereo partly drawn)
2. CCCCCCCCCCCCCCCCCCSSCCCCCCCCCCCCCCCCCC
3. Nc1ccc(-c2nc3ccccc3s2)cc1

### Response
[54, -3, -3]

Quick batch: growth inhibition for everything below.
1. CC(C(=O)c1ccc2cc(Br)c3ccccc3c2c1)N(C)C (stereo not drawn)
2. CCC[CH2][Sn]([CH2]CCC)([O]C(=O)c1cc(OC)c(OC)cc1OC)[O][Sn]([CH2]CCC)([CH2]CCC)[O]C(=O)c1cc(OC)c(OC)cc1OC
3. CN(C)CCOc1cc2c(c3ccccc13)-c1ccccc1C2=O

### Response
-14
96
20

Quick batch: growth inhibition for everything below.
1. CC(=O)Oc1cccc2c(OC(C)=O)cccc12
2. Cc1ccc(C2=CC(=O)/C(=C\C(=O)c3ccc(Cl)cc3)O2)cc1
3. O=C(Nc1cccc(Cl)c1)Oc1c(Br)cc(Br)cc1Br
4. CCCCCCCCCC(=O)CC(=O)c1ccc(O)cc1O
5. FC(F)(F)c1ccccc1NC(=S)SCc1ccco1
6. O=C(O)C1CCCCC1.[Ag]

### Response
1: -9; 2: 17; 3: 34; 4: 50; 5: 1; 6: 99

###

Assay: NCI Yeast Anticancer Drug Screen. Data for the cln2 rad14 strain (AID 165);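 also: 0% = growth equal to vehicle treated cultures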
Conditions: S. cerevisiae cln2 rad14 strain, at 5.0 µM (retest, dose inferred, filed as 0.5), active compounds read high
Compounds without any hit were thinned out: in the full panel of roughly 79,000, 15% have a hit.
Please provide measured growth inhibition for the entries that follow.
Numbers only, in %.

C=C(C)C1CC2=C(O1)C(=O)c1ccccc1C2=O (stereo unspecified) = -9
Cc1cc(-c2ccccc2)c(C)c(-c2ccccc2)c1-c1ccccc1 = -5
CSC(=Nc1ccccc1)NC(=O)Nc1ccc(Cl)cc1 = -18
Cc1c(-c2ccc(C(=N)N)cc2)oc(-c2ccc(C(=N)N)cc2)c1C = 80
CC(=O)OC1CCC2(C)C(CCC3C4=CCC(C5COC(=O)C5)C4(C)CCC32)C1 (stereo unspecified) = -2

Quick batch: growth inhibition for everything below.
1. C[N+](C)(C)CC(=O)N/N=C/c1oc(-c2c(O)ccc3ccccc23)c(-c2c(O)ccc3ccccc23)c1[N+](=O)[O-]
2. Clc1ccc(C2SCc3nc4ccccc4n32)c(Cl)c1 (stereo unspecified)

### Response
1. 13
2. -17

Quick batch: growth inhibition for everything below.
1. O=S1(=O)CC=C1c1ccccc1
2. O=C1OC2(CCCCC2)OC(=O)C1=Cc1ccc([N+](=O)[O-])s1
3. O=[N+]([O-])c1ccc(SC(=S)N2CCCCC2)c([N+](=O)[O-])c1
4. CC1Cc2ccc3c(c2C(c2ccc4c(c2)OCO4)C1C)OCO3 (stereo unspecified)

### Response
5
4
0
-23

###

Please provide measured growth inhibition for the entries that follow.
Test: NCI Yeast Anticancer Drug Screen. Data for the rad50 strain (AID 155);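 also: 0% = growth of vehicle-only cultures of the same strain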
Conditions: S. cerevisiae rad50 strain growth inhibition; at 5.0 µM (retest, dose inferred, filed as 0.5); active compounds read high
Compounds without any hit were thinned out: in the full panel of roughly 79,000, 15% have a hit. Calls of active or inactive are those of the source. Rule as the data show it: active = growth inhibition above about 70%; inactive = the rest.

// below: answered compounds
c1ccc([B-](c2ccccc2)(c2ccccc2)c2ccccc2)cc1 = -3% (inactive)
CC1/C=C/C=C/CC/C=C/C=C/C=C/C=C/C(OC2OC(C)C(O)C(N)C2O)CC2OC(CC(O)C(O)CCC(O)CC(O)CC(O)CC(=O)OC(C)C(C)C1O)CC(O)C2C(=O)O (stereo not given) = 98% (active)
O=[N+]([O-])C1=Cc2cc(Cl)ccc2OC1c1cccc2ccccc12 (stereo not given) = 98% (active)

Quick batch: growth inhibition for everything below.
1. Cc1[nH]c2ccccc2c1SCc1ccccc1
2. NC(N)=Nc1ccc(C(=O)Oc2c(Cl)cc([N+](=O)[O-])cc2Cl)cc1
3. COc1cc2cc[n+]3c4ccc([N+](=O)[O-])cc4ccc3c2cc1OC

### Response
-5% (inactive)
-30% (inactive)
73% (active)

Quick batch: growth inhibition for everything below.
1. Cc1ccc(S(=O)(=O)OC(C=O)C(O)C(O)COC(c2ccccc2)(c2ccccc2)c2ccccc2)cc1 (stereo not given)
2. CCN(CC)CCSCCCNc1cc(OC)cc2cccnc12
3. Clc1ccc2ns[s+]c2c1

### Response
1. 98% (active)
2. -1% (inactive)
3. 8% (inactive)

### Prompt Return reported growth inhibition; argument: CCO/C=C1\N=C(C(O)(c2ccc(Cl)cc2)c2ccc(Cl)cc2)OC1=O
### Response -1% (inactive)

###

Test: NCI Yeast Anticancer Drug Screen. Data for the bub3 strain (AID 167)
Conditions: S. cerevisiae bub3 mutant strain, at 5.0 µM (retest, dose inferred, filed as 0.5)
Description: Growth inhibition of yeast strains with defined genetic alterations is measured as a screen for potential anti-cancer activity. Selected strains with alterations in DNA damage repair or cell cycle control were exposed to compounds and growth inhibition was measured relative to vehicle treated controls. The strain used in this assay is bub3
The panel holds about 79,000 compounds, 15% with a hit somewhere; the sample as a whole holds those more often. Active and inactive are the calls of the source. Cut-off read from the data, not from the text of the source: active = growth inhibition above about 70%; inactive = the rest.
Returns: one label drawn from active, inactive

COC(=O)c1cc(-c2c[nH]cc2C(=O)OCc2ccccc2)cn1S(=O)(=O)c1ccc(C)cc1 = inactive
Cc1cccc(/C=N/NC(=S)Nc2ccc(Cl)cc2)n1 = inactive
CCCCc1c(O)c(N=NC(=O)C[n+]2ccccc2)c2ccccc2c1O = inactive

### Prompt # fetch the recorded call for Brc1ccc2[nH]c3ccccc3c2c1 here
### Response inactive

### Prompt Note, next up: CCOC(=O)N1CCN(CCCCCCOc2ccc(C(C)(C)C)cc2)CC1
### Response inactive

### Prompt Note, next up: Cc1ccc(N=C(N)Nc2ccc(C)cn2)nc1
### Response inactive

###

Please provide measured growth inhibition for the entries that follow.
Test: NCI Yeast Anticancer Drug Screen. Data for the mlh1 rad18 strain (AID 175)
Settings: S. cerevisiae mlh1 rad18 strain growth inhibition; at 50.0 µM (retest, dose inferred, filed as 5.0); active compounds read high
About 79,000 compounds went through this panel and 15% of them were active in at least one assay; those are over-represented in the sample as a whole. The source made the active and inactive calls. Cut-off read from the data, not from the text of the source: active = growth inhibition above about 70%; inactive = the rest.

// below: answered compounds
CCOc1ccccc1NC1=C(Cl)C(=O)c2ccccc2C1=O = 97% (active)
CC(=O)Nc1cccc2c1ccc1ccc3ccccc3c12 = 52% (inactive)
CC(C)[C@@H]1CC[C@@H](C)C[C@H]1OC(=O)NN = 68% (inactive)
CCCCN1CCN(c2ccc([N+](=O)[O-])c3no[n+]([O-])c23)CC1 = 99% (active)
CN(C)c1ccc(-c2c(C#N)c(S)n(NS(=O)(=O)c3ccccc3)c(=O)c2C#N)cc1 = 94% (active)
CC1CCN(CC(=O)N2c3ccccc3Sc3cc4ccccc4cc32)CC1 = 8% (inactive)
Cc1cc(C)c2c(c1)sc1nncn12 = 97% (active)
O=C1CN(/N=C\c2ccc([N+](=O)[O-])o2)C(=O)N1 = 65% (inactive)
CCN(C(C)=O)c1cnc(/C=N/NC(N)=S)c2ccccc12 = 57% (inactive)
Nc1ccc(SCCCc2c(N)nc(N)nc2N)cc1 = 32% (inactive)

Quick batch: growth inhibition for everything below.
1. CCOc1ccnc2c(C)c3c([nH]c4ccccc43)c(C)c12
2. CC(=O)OCc1cc2c(s1)C(=O)c1sccc1C2=O

### Response
["99% (active)", "89% (active)"]

###

Test: NCI Yeast Anticancer Drug Screen. Data for the rad50 strain (AID 155);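 also: 0% = growth of vehicle-only cultures of the same strain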
Settings: S. cerevisiae rad50 strain growth inhibition; at 50.0 µM (retest, dose inferred, filed as 5.0); active compounds read high
Compounds without any hit were thinned out: in the full panel of roughly 79,000, 15% have a hit.
experimental endpoint: growth inhibition (%)
Answers are plain numbers, in %.

Cc1ccc(C)c(C2CCCCC2O)c1 (stereo not given) = -80
CCCCCCCCCCCCCCCC[N+](C)(C)CCCCCC(=O)OC = 99
c1ccc2nc3ccccc3nc2c1 = 64
CCN(CC)CCCC(=O)Nc1cc(OC)cc2cccnc12 = 0
O=c1c2c3ccccc3[nH]c2c2cccc3c2n1CCC3 = 92

Quick batch: growth inhibition for everything below.
1. COc1ccc(-c2c(CO)cc(OC)c(OC)c2OC)c(CO)c1
2. Oc1cc2c(cc1C(c1ccc(F)cc1)N1CCCCC1)OCO2 (stereo not given)
3. O=C1NC(=S)S/C1=C\c1ccc(F)cc1
4. C=Cc1nc(N)nc(-c2ccc(C)cc2)n1
5. COC(=O)/C=C(\Cl)C(=O)OC

### Response
[6, 76, 6, 91, 84]

Quick batch: growth inhibition for everything below.
1. C[C@]12CC[C@H](O)CC1=CC[C@@H]1C2CC[C@]2(C)NC(=O)CCC12 (stereo not given in full)
2. COC(=O)[C@@H](O)[C@]1(C(=O)OC)C2O[C@@H](OC)[C@@H]1CCCCCC[C@H]2O
3. CC(C)CCN(CCC(C)C)C(=S)Nc1ccccc1
4. CC/C(=N\O)c1ccc2cc(Br)c3ccccc3c2c1
5. O=C1CSC(=S)N1c1cccc(Cl)c1
6. CCCCCCCCCCCC[N+](C)(CCS(=O)(=O)[O-])Cc1ccccc1 (stereo not given)
7. CCOP(=O)(OCC)/C(C#N)=C/c1coc2cc(C)cc(C)c2c1=O
8. Nc1cccc2c1C(=O)c1cccc(Cl)c1C2=O

### Response
1: 0; 2: 11; 3: 87; 4: 89; 5: 28; 6: 51; 7: 99; 8: 83

Quick batch: growth inhibition for everything below.
1. Cc1ccccc1C[n+]1ccccc1Br
2. Oc1ccc(CC2CCC(O)CC2)cc1 (stereo not given)
3. c1ccc2c(c1)C[N+]1(CCCCCCC1)C2
4. O=C(c1ccc([N+](=O)[O-])cc1)c1[nH]c2ccccc2c(=O)c1-c1ccccc1
5. COc1ccc2c(c1)C=C([N+](=O)[O-])C(C1OC(C)(C)OC1C1COC(C)(C)O1)O2 (stereo not given)
6. CCCNC(=O)c1ccccc1
7. CN(C)C(=S)/N=c1\sn(C)/c(=N\C(=S)N(C)C)n1C

### Response
1. 87
2. -33
3. 51
4. 96
5. 12
6. -5
7. -14
